# IC50 per entry
- measured-target: BuChE from equine serum (eqBuChE) (Equus caballus, UniProt P81908)
- Sequence (P81908 whole entry): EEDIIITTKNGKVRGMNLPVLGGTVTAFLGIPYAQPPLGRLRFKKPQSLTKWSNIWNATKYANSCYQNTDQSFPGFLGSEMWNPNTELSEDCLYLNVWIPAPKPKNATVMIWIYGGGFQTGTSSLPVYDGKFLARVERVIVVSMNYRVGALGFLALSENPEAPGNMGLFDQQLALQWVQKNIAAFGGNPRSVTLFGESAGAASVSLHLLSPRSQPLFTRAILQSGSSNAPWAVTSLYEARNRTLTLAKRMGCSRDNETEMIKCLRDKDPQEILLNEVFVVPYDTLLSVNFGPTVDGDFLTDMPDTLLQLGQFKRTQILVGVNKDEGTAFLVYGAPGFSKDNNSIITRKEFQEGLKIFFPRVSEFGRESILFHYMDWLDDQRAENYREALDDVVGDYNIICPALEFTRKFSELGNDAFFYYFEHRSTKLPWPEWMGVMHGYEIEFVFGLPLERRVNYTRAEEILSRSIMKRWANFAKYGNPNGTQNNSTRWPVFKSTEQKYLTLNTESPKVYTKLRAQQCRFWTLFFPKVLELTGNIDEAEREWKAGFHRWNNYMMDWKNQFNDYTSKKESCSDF
- protocol-text: biochemical
- condition-summary: mean ± SEM, triplicate independent experiments
Just the number please, in nM, no unit attached.

# count of solved cases: 3
- compound: "CC1CCCN(CCCCCCOc2ccc(C(=O)c3ccc(F)cc3)cc2)C1 (stereo not drawn)"
  units-label: "nM"
  IC50: 2560
- compound: "O=C(c1ccc(Cl)cc1)c1ccc(OCCCCCN2CCCCCC2)cc1"
  units-label: "nM"
  IC50: 676
- compound: "CC1CCN(CCCCCOc2ccc(C(=O)c3ccccc3)cc2)CC1"
  units-label: "nM"
  IC50: 1570

Lab note: "O=C(c1ccc(Cl)cc1)c1ccc(OCCCCCN2CCCCC2)cc1" gave IC50 of 1680

The value of IC50 measured for the compound CC1CCCN(CCCCCCOc2ccc(C(=O)c3ccc(Cl)cc3)cc2)C1 (stereo not drawn) turned out to be 2520

In plain terms, "O=C(c1ccc(Cl)cc1)c1ccc(OCCCCCCN2CCCCC2)cc1" has a documented IC50 of 2460

Note to self: IC50 recorded for "O=C(c1ccccc1)c1ccc(OCCCCCN2CCCCCC2)cc1" was 678

Briefly, IC50 measured for "O=C(c1ccccc1)c1cccc(OCCCCCCN2CCCCCC2)c1" : 616

get_value(item= "O=C(c1ccccc1)c1cccc(OCCCCCN2CCCCC2)c1" , readout=IC50) returns 4010

Hey, just so you know, these numbers are from paper PMC9822066.
